Entries annotated with measured cytotoxicity
assay: cytotoxicity in HPDE-C7 cells, cell-based, fluorescence, HTS (AID 430); conditions: HPDE-C7 pancreatic duct cells viability, at 10 µM, active compounds read high;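 also: cells exposed to compound for 48 hours before viability readout; 0% = vehicle and 100% = reference cytotoxic drug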
In all, about 63,000 compounds went through this assay and about 1,100 (1.7%) were called active. Shown is part of a subset that was picked to be rich in actives. Entries with a potency or affinity are not part of this list.
Measured Endpoint: cytotoxicity (%)

>>> quantitative_readout("CCc1nc2ccccc2c(NC(=O)CN2CCC(C)CC2)c1C")
8.8
>>> quantitative_readout("Clc1ccc(OCc2nc(-c3ccncc3)no2)c(Cl)c1")
-6.9
>>> quantitative_readout("O=C(NCc1ccc(F)cc1)c1noc2c1CCCC2")
-10.3
>>> quantitative_readout("CCOCCCNC(=O)CSc1ccccc1")
-13.6
>>> quantitative_readout("COc1cccc(-n2ccnc2SCC(=O)Nc2cc(OC)ccc2OC)c1")
-21
>>> quantitative_readout("O=C(O)c1cnn2c1NC(c1ccc(F)cc1)CC2C(F)(F)F (configuration not stated)")
-9.5
>>> quantitative_readout("Fc1ccccc1CSc1ncnc2c1oc1ccccc12")
5.1
>>> quantitative_readout("CSc1nnc2n(-c3ccccc3)c(=O)c3c4c(sc3n12)CCC4")
11.5
>>> quantitative_readout("CCOC(=O)C1=C(C)N=C2SC(C)C(=O)N2C1/C=C/c1ccccc1OC (configuration not stated)")
-8.3
>>> quantitative_readout("CC1CCCCN1CCn1cnc2c([nH]c3ccccc32)c1=O (configuration not stated)")
-2.1
>>> quantitative_readout("COCc1nnc(NC(=O)c2ccc(S(=O)(=O)N(C)C3CCCCC3)cc2)o1")
47.9
>>> quantitative_readout("COC(=O)c1ccccc1NC(=O)CSc1nnc(-c2cccc(NC(C)=O)c2)n1C")
6.2
